measured_on: 5-HT2B receptor (Homo sapiens, UniProt P41595)
Construct: host or cells: HEK293
Sequence (P41595 whole entry): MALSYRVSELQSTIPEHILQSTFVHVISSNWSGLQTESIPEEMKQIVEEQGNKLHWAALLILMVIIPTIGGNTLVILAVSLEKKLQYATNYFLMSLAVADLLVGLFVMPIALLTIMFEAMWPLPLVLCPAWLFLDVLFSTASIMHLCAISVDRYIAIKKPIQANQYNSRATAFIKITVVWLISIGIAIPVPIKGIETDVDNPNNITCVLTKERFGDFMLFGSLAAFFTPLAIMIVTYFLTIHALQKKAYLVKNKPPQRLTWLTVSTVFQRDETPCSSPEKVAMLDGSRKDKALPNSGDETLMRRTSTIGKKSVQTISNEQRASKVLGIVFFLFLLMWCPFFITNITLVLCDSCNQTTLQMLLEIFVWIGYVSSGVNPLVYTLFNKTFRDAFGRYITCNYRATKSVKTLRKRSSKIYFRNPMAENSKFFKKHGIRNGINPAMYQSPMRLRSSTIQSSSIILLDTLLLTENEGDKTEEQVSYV
procedure_details: FLIPR Ca2+ flux agonist assay at 5-HT2B (HEK293)
Assay type: cell-based
Field: EC50. Provide a value for each of the compounds that follow.

In [3]: df
Out[3]:
                                   compound  assay_result
0  CCN(C)CCc1c[nH]c2cccc(O)c12 [Compound 4-HO-MET, reference compound]       > 10 µM
1               Oc1cccc2[nH]cc(CCN3CCC3)c12       > 10 µM

Query: EC50; subject: CCN(C)CCc1c[nH]c2ccccc12 [MET, reference compound]
> 100 µM
